Target of assay: UniProtKB P31652
Experiment: Binding affinity towards Serotonin transporter from rat cortex measured using [3H]paroxetine
Measurement parameters: read-out: Ki
pKi: −log10 of the molar value.
# cutoff 6 applies to pKi; >= gives true (1), < gives false (0)

Solved entries (count: 5):
COc1ccccc1N1CCN(CCC(=O)c2ccccc2)CC1: false (0)
OC(CCN1CCN(c2ccccn2)CC1)c1ccccc1 (stereo unspecified): false (0)
O=C(CCN1CCN(c2ccc(F)cc2)CC1)c1ccccc1: false (0)
O=C(CCN1CCN(c2ccccc2Cl)CC1)c1ccsc1: false (0)
OC(CCN1CCN(c2ccccc2Cl)CC1)c1ccccc1 (stereo unspecified): false (0)

Please tell me: is the compound COc1ccccc1N1CCN(CCC(O)c2ccccc2)CC1 (stereo unspecified) at or over 6 in terms of pKi?
false (0)

Entry COc1ccccc1N1CCN(CCC(=O)c2ccc([N+](=O)[O-])s2)CC1 : is its pKi no less than 6?
false (0)

Determine whether measured pKi meets or exceeds 6 for COc1ccccc1N1CCN(CCC(Oc2ccc(C(F)(F)F)cc2)c2ccc(-c3ccccc3)cc2)CC1 (stereo unspecified)
false (0)

Is pKi at least 6? Consider COc1ccc(N2CCN(CCC(=O)c3ccccc3)CC2)cc1
false (0)

Is pKi for COc1ccccc1N1CCN(CC/C(=N\O)c2ccccc2)CC1 at or above 6?
false (0)

Item COc1ccccc1N1CCN(CC/C(=N\O)c2ccc(C)s2)CC1 with pKi of 6 or above?
true (1)

In plain terms: is recorded pKi at least 6 for COc1cc(F)ccc1N1CCN(CCC(O)c2csc3ccccc23)CC1 (stereo unspecified) ?
true (1)

Can Fc1ccc(N2CCN(CCC(Oc3ccc(C(F)(F)F)cc3)c3ccccc3)CC2)cc1 (stereo unspecified) be said to have pKi at or above 6?
true (1)

In plain terms: is recorded pKi at least 6 for O=C(CCN1CCN(c2ccccc2Cl)CC1)c1ccccc1 ?
false (0)

Could you please find out whether O=C(CCN1CCN(c2ccccn2)CC1)c1ccccc1 has pKi that meets 6 or exceeds it?
false (0)

# bool: pKi of OC(CCN1CCN(c2ccc(Cl)cc2)CC1)c1cccs1 (stereo unspecified) >= 6
true (1)

Textbook exercise: given the entry O=C(CCN1CCN(c2ccccc2O)CC1)c1csc2ccccc12 , state whether its pKi is greater than or equal to 6.
true (1)

pKi >= 6 for Cc1cc(C(O)CCN2CCN(c3ccccc3O)CC2)c(C)s1 (stereo unspecified) ?
false (0)

Confirm if pKi reported for the compound COc1ccccc1N1CCN(CCC(O)c2csc3ccccc23)CC1 (stereo unspecified) is 6 or above.
true (1)

Exam item: decide whether the reported pKi for Cc1cc(C(=O)CCN2CCN(c3cccc4ccccc34)CC2)c(C)s1 is at least 6.
true (1)

Could you verify whether the entry COc1ccccc1N1CCN(CC/C(=N\O)c2cc(C)sc2C)CC1 shows pKi of no less than 6?
false (0)

Does the reported pKi for O=C(CCN1CCN(c2ccc(Cl)cc2)CC1)c1csc2ccccc12 fall at or above the 6 mark?
false (0)

Tell me whether pKi is at least 6 here: COc1ccc(OC(CCN2CCN(c3ccc(Cl)cc3)CC2)c2ccccc2)cc1 (stereo unspecified)
true (1)

Say whether COc1ccccc1N1CCN(CCC(O)c2ccsc2)CC1 (stereo unspecified) shows pKi of 6 or more.
true (1)

----------
Target of assay: Sodium-dependent serotonin transporter (Rattus norvegicus)
Experiment: Binding affinity towards Serotonin transporter from rat cortex measured using [3H]paroxetine
Measurement parameters: read-out: Ki
We begin with a simple list: items and their reported Ki.
Return type: number; implicit unit nM.

COc1ccccc1N1CCN(CCC(Oc2ccc(C(F)(F)F)cc2)c2ccsc2)CC1 (stereo not given): 460
COc1ccccc1N1CCN(CCC(Oc2cccc3ccccc23)c2ccsc2)CC1 (stereo not given): 150
O=[N+]([O-])c1ccc(N2CCN(CCC(Oc3ccc(C(F)(F)F)cc3)c3ccccc3)CC2)cc1 (stereo not given): 2500

Please fill in: Ki reported for COc1ccccc1N1CCN(CCC(Oc2ccc(C(F)(F)F)cc2)c2ccccc2)CC1 (stereo not given) = 650

----------
Target of assay: Sodium-dependent serotonin transporter (Rattus norvegicus)
Experiment: Binding affinity towards Serotonin transporter from rat cortex measured using [3H]paroxetine
Measurement parameters: read-out: Ki
Endpoint name: pKi
In plain terms, pKi is the concentration in mol/L turned into minus its base-10 logarithm.

Cc1cc(C(=O)CCN2CCN(c3ccccc3O)CC2)c(C)s1: 6.10
COc1ccccc1N1CCN(CCC(=O)c2cc(C)sc2C)CC1: 5.87

pKi reading for COc1ccccc1N1CCN(CCC(O)c2cccs2)CC1 (stereo not drawn) : 5.90

----------
Target of assay: Sodium-dependent serotonin transporter (Rattus norvegicus, UniProt P31652)
Sequence (P31652 whole entry): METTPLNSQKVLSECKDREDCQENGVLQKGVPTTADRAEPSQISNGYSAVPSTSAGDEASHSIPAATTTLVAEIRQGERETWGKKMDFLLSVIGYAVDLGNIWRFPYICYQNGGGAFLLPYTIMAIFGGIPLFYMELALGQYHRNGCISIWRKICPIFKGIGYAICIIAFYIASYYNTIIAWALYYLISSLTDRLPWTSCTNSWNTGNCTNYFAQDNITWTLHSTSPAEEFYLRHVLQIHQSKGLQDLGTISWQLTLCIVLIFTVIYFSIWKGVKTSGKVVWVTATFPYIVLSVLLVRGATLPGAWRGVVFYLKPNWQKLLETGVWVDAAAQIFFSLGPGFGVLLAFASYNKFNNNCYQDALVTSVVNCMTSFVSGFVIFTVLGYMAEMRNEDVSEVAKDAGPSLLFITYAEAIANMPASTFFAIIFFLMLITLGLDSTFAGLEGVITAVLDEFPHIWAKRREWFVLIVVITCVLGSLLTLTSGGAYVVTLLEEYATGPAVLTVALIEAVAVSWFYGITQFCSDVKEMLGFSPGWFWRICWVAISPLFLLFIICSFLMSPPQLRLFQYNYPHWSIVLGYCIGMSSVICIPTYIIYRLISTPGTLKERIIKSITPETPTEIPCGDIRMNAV
Experiment: Binding affinity towards Serotonin transporter from rat cortex measured using [3H]paroxetine
Measurement parameters: read-out: Ki
Endpoint name: Ki (nM)
Give the value in nM but do not write nM after it.

Worked cases, answers included:
COc1ccc(N2CCN(CCC(O)c3ccccc3)CC2)cc1 (configuration not stated): 1150
O=[N+]([O-])c1ccc(N2CCN(CCC(O)c3ccccc3)CC2)cc1 (configuration not stated): 1150
COc1ccccc1N1CCN(CCC(=O)c2ccc3ccccc3c2)CC1: 1000
COc1ccc(OC(CCN2CCN(c3ccccc3OC)CC2)c2ccccc2)cc1 (configuration not stated): 1450
O=C(CCN1CCN(c2cccc3ccccc23)CC1)c1ccsc1: 800
COc1ccccc1N1CCN(CC/C(=N\O)c2csc3ccccc23)CC1: 95

Looking up O=C(CCN1CCN(c2ccccc2O)CC1)c1ccc2ccccc2c1 , I see its Ki listed as 2500

Please fill in: Ki reported for O=C(CCN1CCN(c2ccc(Cl)cc2)CC1)c1ccccc1 = 300

----------
Target of assay: Sodium-dependent serotonin transporter (Rattus norvegicus, UniProt P31652)
Experiment: Binding affinity towards Serotonin transporter from rat cortex measured using [3H]paroxetine
Measurement parameters: read-out: Ki
Endpoint name: Ki

# annotated cases, reported Ki shown
FC(F)(F)c1ccc(OC(CCN2CCN(c3ccccc3Cl)CC2)c2ccccc2)cc1 (centres undefined): > 5 µM
O=C(CCN1CCN(c2ncccn2)CC1)c1ccccc1: > 5 µM
OC(CCN1CCN(c2ncccn2)CC1)c1ccccc1 (centres undefined): > 5 µM

Here is the next item to consider.
Sample COc1ccccc1N1CCN(CCC(=O)c2ccc(C)s2)CC1 ; Ki observed: > 5 µM
